measuredTarget: NRAS Q61R (Homo sapiens, UniProt P01111+P62937, Q61R)
Sequence (P01111 whole entry Q61R): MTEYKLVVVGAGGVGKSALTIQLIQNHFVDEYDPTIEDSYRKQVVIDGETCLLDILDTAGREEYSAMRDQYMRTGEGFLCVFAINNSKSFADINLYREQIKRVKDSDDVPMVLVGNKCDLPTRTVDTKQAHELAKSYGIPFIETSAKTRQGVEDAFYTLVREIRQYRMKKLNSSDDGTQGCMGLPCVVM
Sequence (P62937 whole entry): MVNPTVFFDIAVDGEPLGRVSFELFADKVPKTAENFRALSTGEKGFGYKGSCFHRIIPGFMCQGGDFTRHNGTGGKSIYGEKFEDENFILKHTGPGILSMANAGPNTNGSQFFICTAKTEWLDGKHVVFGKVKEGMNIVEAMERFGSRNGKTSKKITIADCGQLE
methodSummary: Disruption of BRAF RBD interaction with Ras (FRET / MOA assay, with Cyclophilin A)
Type: biochemical
conditionSet: NRAS Q61R; read-out: NRAS Q61R FRET data IC50
Source text: Disruption of B-Raf Ras-Binding Domain (BRAF^RBD) Interaction with K-Ras by Compounds of the Invention (Also Called a FRET Assay or an MOA Assay) Note—The following protocol describes a procedure for monitoring disruption of K-Ras G12C (GMP-PNP) binding to BRAF^RBD by a compound of the invention. This protocol may also be executed substituting other Ras proteins or nucleotides. […]
List of IC50 values.

See these solved cases before continuing.
compound: C=CC(=O)N1CCO[C@H]2CCN(C(=O)N(C)[C@H](C(=O)N[C@H]3Cc4nc(cs4)-c4ccc5c(c4)c(c(-c4cccnc4[C@H](C)OC)n5CC)CC(C)(C)COC(=O)C4CCCN(N4)C3=O)C(C)C)C[C@@H]21 (some centres unmarked) [Example A609]
testValue: 0.01 to 0.1 µM

compound: C=CC(=O)N1CC[C@H](C(=O)N(C)[C@H](C(=O)N[C@H]2Cc3cc(O)cc(c3)-c3ccc4c(c3)c(c(-c3ccnc5c3[C@@H](OC)CC5)n4CC)CC(C)(C)COC(=O)[C@@H]3CCCN(N3)C2=O)C(C)C)C1 [Example A275]
testValue: 0.1 to 1 µM

compound: CCn1c(-c2cccnc2[C@H](C)OC)c2c3cc(ccc31)-c1csc(n1)C[C@H](NC(=O)[C@H](C(C)C)N1CCN(C)C1=O)C(=O)N1CCC[C@H](N1)C(=O)OCC(C)(C)C2 [Example A389]
testValue: 1 to 10 µM

compound: C=CC(=O)N1CC[C@H](C(=O)N(C)[C@H](C(=O)N[C@H]2Cc3cc(O)cc(c3)-c3ccc4c(c3)c(c(-c3cccnc3N3CC(OC)C3)n4CC)CC(C)(C)COC(=O)[C@@H]3CCCN(N3)C2=O)C(C)C)C1 [Example A060]
testValue: > 10 µM

compound: C=CC(=O)N1CCOC2(CCN(C(=O)N(C)[C@H](C(=O)N[C@H]3Cc4cccc(c4)-c4ccc5c(c4)c(c(-c4cccnc4[C@H](C)OC)n5CC(F)(F)F)CC(C)(C)COC(=O)C4CCCN(N4)C3=O)C(C)C)CC2)C1 (some centres unmarked) [Example A608]
testValue: 0.1 to 1 µM

compound: CCn1c(-c2cccnc2[C@H](C)OC)c2c3cc(ccc31)-c1csc(n1)C[C@H](NC(=O)[C@H](C(C)C)N(C)C(=O)N1CCC[C@@H](N(C)C)C1)C(=O)N1CCC[C@H](N1)C(=O)OCC(C)(C)C2 (atropisomer, axis not shown) [Example A531]
testValue: 0.1 to 1 µM

compound: CCn1c(-c2cccnc2[C@H](C)OC)c2c3cc(ccc31)-c1nc(cs1)C[C@H](NC(=O)[C@H](C(C)C)N(C)C(C)=O)C(=O)N1CCC[C@H](N1)C(=O)OCC(C)(C)C2 [Example A152]
testValue: 1 to 10 µM

compound: C=CC(=O)N1CCOC2(CCN(C(=O)N(C)[C@H](C(=O)N[C@H]3Cc4nc(n(C)n4)-c4ccc5c(c4)c(c(-c4cccnc4[C@H](C)OC)n5CC(F)(F)F)CC(C)(C)COC(=O)C4CCCN(N4)C3=O)C(C)C)CC2)C1 (some centres unmarked) [Example A606]
testValue: 0.1 to 1 µM

compound: CCn1c(-c2cccnc2[C@H](C)OC)c2c3cc(ccc31)-c1csc(n1)C[C@H](NC(=O)[C@@H]1CCCO1)C(=O)N1CCC[C@H](N1)C(=O)OCC(C)(C)C2 [Example A331]
testValue: 1 to 10 µM

compound: C=CC(=O)N1CC2[C@@H](C1)CN2C(=O)N(C)[C@H](C(=O)N[C@H]1Cc2nc(cs2)-c2ccc3c(c2)c(c(-c2cccnc2[C@H](C)OC)n3CC)CC(C)(C)COC(=O)[C@@H]2CCCN(N2)C1=O)C(C)C (some centres unmarked) [Example A686]
testValue: 0.1 to 1 µM

Lab book: IC50 of CCn1c(-c2cc(N3CCN(C)CC3)cnc2[C@H](C)OC)c2c3cc(ccc31)-c1csc(n1)C[C@H](NC(C)=O)C(=O)N1CCC[C@H](N1)C(=O)OCC(C)(C)C2 [Example A321] noted as 0.1 to 1 µM

Lab book: IC50 of CCn1c(-c2cccnc2[C@H](C)OC)c2c3cc(ccc31)N1CCO[C@@](C)(CC(NC(=O)[C@H](C(C)C)N(C)C(=O)C3(F)CCN(C(=O)C#CC(C)(C)N(C)C)CC3)C(=O)N3CCC[C@H](N3)C(=O)OCC(C)(C)C2)C1 (some centres unmarked) [Example A550] noted as 1 to 10 µM

Lab book: IC50 of CCn1c(-c2cccnc2[C@H](C)OC)c2c3cc(ccc31)-c1csc(n1)C[C@H](NC(=O)[C@H](C(C)C)N(C)C(=O)N1CC([C@@H](C)OC)C1)C(=O)N1CCC[C@H](N1)C(=O)OCC(C)(C)C2 (atropisomer, axis not shown) [Example A278] noted as 0.01 to 0.1 µM

Lab book: IC50 of C=CC(=O)N1CC2(CCN2C(=O)N(C)[C@H](C(=O)N[C@H]2Cc3nc(n(C)n3)-c3ccc4c(c3)c(c(-c3cccnc3[C@H](C)OC)n4CC)CC(C)(C)COC(=O)C3CCCN(N3)C2=O)C(C)C)C1 (some centres unmarked) [Example A612] noted as 0.01 to 0.1 µM

Lab book: IC50 of CCn1c(-c2cccnc2[C@H](C)OC)c2c3cc(ccc31)-c1csc(n1)C[C@H](NC(=O)[C@H](C(C)C)N(C)C(=O)N1CC(CN(C)C)(OC)C1)C(=O)N1CCC[C@H](N1)C(=O)OCC(C)(C)C2 (atropisomer, axis not shown) [Example A575] noted as 1 to 10 µM

Lab book: IC50 of CCn1c(-c2cccnc2[C@H](C)OC)c2c3cc(ccc31)-c1csc(n1)C[C@H](NC(=O)[C@H](C(C)C)N(C)C(=O)N1CC(N(C)C3CC3)C1)C(=O)N1CCC[C@H](N1)C(=O)OCC(C)(C)C2 (atropisomer, axis not shown) [Example A285] noted as 0.1 to 1 µM

Lab book: IC50 of CCn1c(-c2cccnc2[C@H](C)OC)c2c3cc(ccc31)-c1csc(n1)C[C@H](NC(=O)[C@H](C(C)C)N(C)C(=O)N1CCN(C(=O)CO)CC1)C(=O)N1CCC[C@H](N1)C(=O)OCC(C)(C)C2 (atropisomer, axis not shown) [Example A306] noted as 0.01 to 0.1 µM

###

measuredTarget: KRAS G12D (Homo sapiens, UniProt P01116+P62937, G12D)
Sequence (P01116 1-169 isoform P01116-2 G12D limits assumed): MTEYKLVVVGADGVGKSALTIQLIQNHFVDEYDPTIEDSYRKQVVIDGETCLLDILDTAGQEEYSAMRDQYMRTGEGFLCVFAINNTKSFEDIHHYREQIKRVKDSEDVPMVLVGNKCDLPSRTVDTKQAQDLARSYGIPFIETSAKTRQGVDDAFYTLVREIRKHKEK
Sequence (P62937 whole entry): as the sequence (P62937 whole entry) above
methodSummary: Ras-Raf disruption / FRET / MOA assay (BRAF RBD)
Format: biochemical
conditionSet: Ras-Raf disruption, with Cyclophilin A; read-out: KRAS G12D FRET data IC50
measurementLabel: IC50

compound: CCn1c(-c2cccnc2[C@H](C)OC)c2c3cc(ccc31)-c1cc(O)cc(c1)C[C@H](NC(=O)[C@H](C(C)C)N1CC[C@@]3(CCN(C(=O)[C@@H]4N[C@@H]4C4CC4)C3)C1=O)C(=O)N1CCC[C@H](N1)C(=O)OCC(C)(C)C2
IC50: 100 to 1000 nM
--
compound: CCn1c(-c2cccnc2[C@H](C)OC)c2c3cc(ccc31)-c1cc(O)cc(c1)C[C@H](NC(=O)[C@H](C(C)C)N(C)C(=O)[C@H]1CCCCN(C(=O)[C@H]3CN3)C1)C(=O)N1CCC[C@H](N1)C(=O)OCC(C)(C)C2 (atropisomer, axis not shown)
IC50: 1000 to 10000 nM
--
compound: CCn1c(-c2cccnc2[C@H](C)OC)c2c3cc(ccc31)-c1cc(O)cc(c1)C[C@H](NC(=O)[C@H](C(C)C)N(C)C(=O)[C@H]1C[C@H](NC(=O)[C@@H]3CN3)C1)C(=O)N1CCC[C@H](N1)C(=O)OCC(C)(C)C2
IC50: 10 to 100 nM

Lab book: IC50 of CCn1c(-c2cccnc2[C@H](C)OC)c2c3cc(ccc31)-c1cc(O)cc(c1)C[C@H](NC(=O)[C@H](C(C)C)N(C)C(=O)[C@@H]1CCN(C(=O)[C@@H]3CN3)[C@@H]1C)C(=O)N1CCC[C@H](N1)C(=O)OCC(C)(C)C2 (atropisomer, axis not shown) noted as 100 to 1000 nM

###

measuredTarget: KRAS G12S (Homo sapiens, UniProt P01116+P62937, G12S)
Sequence (P01116 1-169 isoform P01116-2 G12S limits assumed): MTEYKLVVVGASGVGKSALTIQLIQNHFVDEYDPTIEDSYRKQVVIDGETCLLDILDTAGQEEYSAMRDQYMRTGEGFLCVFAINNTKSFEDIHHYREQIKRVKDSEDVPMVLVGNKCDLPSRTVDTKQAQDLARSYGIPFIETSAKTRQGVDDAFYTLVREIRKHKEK
Sequence (P62937 whole entry): as the sequence (P62937 whole entry) above
methodSummary: Ras-Raf disruption / FRET / MOA assay (BRAF RBD)
Format: biochemical
conditionSet: KRAS G12S FRET data IC50, Ras-Raf disruption, with Cyclophilin A
pIC50: −log10 of the molar value.
List of pIC50 values.

See these solved cases before continuing.
molecule: CCn1c(-c2cccnc2[C@H](C)OC)c2c3cc(ccc31)-c1cc(O)cc(c1)C[C@H](NC(=O)[C@H](C(C)C)N(C)C(=O)CN(C)C(=O)[C@H]1CN1Cc1ccccc1F)C(=O)N1CCC[C@H](N1)C(=O)OCC(C)(C)C2 (stereo partly shown)
measuredTarget: KRAS G12S (Homo sapiens, UniProt P01116+P62937, G12S)
testValue: 7.00 to 8.00
--
molecule: CCn1c(-c2cccnc2[C@H](C)OC)c2c3cc(ccc31)-c1cc(O)cc(c1)C[C@H](NC(=O)[C@H](C(C)C)N(C)C(=O)CN(C)C(=O)[C@H]1N[C@@H]1C1COC1)C(=O)N1CCC[C@H](N1)C(=O)OCC(C)(C)C2
measuredTarget: KRAS G12S (Homo sapiens, UniProt P01116+P62937, G12S)
testValue: 7.00 to 8.00
--
molecule: CCn1c(-c2cccnc2[C@H](C)OC)c2c3cc(ccc31)-c1cc(O)cc(c1)C[C@H](NC(=O)[C@H](C(C)C)N(C)C(=O)C13CC(CN1C(=O)[C@@H]1CN1)C3)C(=O)N1CCC[C@H](N1)C(=O)OCC(C)(C)C2
measuredTarget: KRAS G12S (Homo sapiens, UniProt P01116+P62937, G12S)
testValue: 6.00 to 7.00

Lab book: pIC50 of CCn1c(-c2cccnc2[C@H](C)OC)c2c3cc(ccc31)-c1cc(O)cc(c1)C[C@H](NC(=O)[C@H](C(C)C)N(C)C(=O)CN(C)C(=O)[C@H]1CN1CCCN1CCCC1=O)C(=O)N1CCC[C@H](N1)C(=O)OCC(C)(C)C2 (stereo partly shown) noted as 7.00 to 8.00
